Tested on: M14
Assay: Cytotoxicity against human M14 cells
Type: functional
MEASURED PARAMETER: GI50

Some entries whose results are on file:
{"CHEMICAL SMILES": "COc1cc(/C=N/Nc2ncnc3sc4c(c23)CCCC4)cc(OC)c1O", "MEASURED PARAMETER": "GI50", "ENDPOINT RESULT": "> 170 µM"}
{"CHEMICAL SMILES": "Clc1ccccc1/C=N/Nc1ncnc2sc3c(c12)CCCC3", "MEASURED PARAMETER": "GI50", "ENDPOINT RESULT": "> 170 µM"}
{"CHEMICAL SMILES": "c1ccc(C(=NNc2ncnc3sc4c(c23)CCCC4)c2ccccc2)cc1", "MEASURED PARAMETER": "GI50", "ENDPOINT RESULT": "> 170 µM"}

Ask | Given the entry Cc1ccc(/C=N/Nc2ncnc3sc4c(c23)CCCC4)cc1 , report its measured GI50.
Reply | > 170 µM

Ask | Follow-up entry: Fc1ccccc1/C=N/Nc1ncnc2sc3c(c12)CCCC3
Reply | > 250 µM

Ask | Follow-up entry: N#Cc1ccc(/C=N/Nc2ncnc3sc4c(c23)CCCC4)cc1
Reply | > 170 µM

Ask | Follow-up entry: C(=N\Nc1ncnc2sc3c(c12)CCCC3)/c1ccncc1
Reply | > 150 µM

Ask | Follow-up entry: C(=N\Nc1ncnc2sc3c(c12)CCCC3)/c1ccc2c(c1)OCO2
Reply | > 250 µM

###

Assay: Cytotoxicity against BALB mouse 3T3 cells
Type: cell-based
Conditions: BALB 3T3 cells
Property: GI50; scope: individual compounds
Output spec: scalar in µM, unitless text.

Some entries whose results are on file:
{"CHEMICAL SMILES": "FC(F)(F)c1ccc(/C=N/Nc2ncnc3sc4c(c23)CCCC4)cc1", "GI50 [µM]": 10.8}
{"CHEMICAL SMILES": "CC(C)(C)/C=N/Nc1ncnc2sc3c(c12)CCCC3", "GI50 [µM]": 7.3}
{"CHEMICAL SMILES": "Brc1ccc(/C=N/Nc2ncnc3sc4c(c23)CCCC4)cc1", "GI50 [µM]": 17.4}

Ask | Given the entry C(=N\Nc1ncnc2sc3c(c12)CCCC3)/c1ccco1 , report its measured GI50.
Reply | 7.8

Ask | Follow-up entry: C(=N\Nc1ncnc2sc3c(c12)CCCC3)/c1ccccn1
Reply | 0.04

Ask | Follow-up entry: CCc1ccc(/C=N/Nc2ncnc3sc4c(c23)CCCC4)cc1
Reply | 36.1

Ask | Follow-up entry: COc1cccc(/C=N/Nc2ncnc3sc4c(c23)CCCC4)c1
Reply | 17.6

Ask | Follow-up entry: Cc1ccc(/C=N/Nc2ncnc3sc4c(c23)CCCC4)cc1
Reply | 37.5

###

Assay: Cytotoxicity against BALB mouse 3T3 cells
Assay type: cell-based
Details: BALB 3T3 cells
Property: GI50; scope: individual molecules

Some entries whose results are on file:
{"CHEMICAL SMILES": "C(=N\\Nc1ncnc2sc3c(c12)CCCC3)/c1ccc2c(c1)OCO2", "GI50": "> 250 µM"}
{"CHEMICAL SMILES": "CC(C)=NNc1ncnc2sc3c(c12)CCCC3", "GI50": "> 3.5 µM"}

Ask | Given the entry O=[N+]([O-])c1ccccc1/C=N/Nc1ncnc2sc3c(c12)CCCC3 , report its measured GI50.
Reply | > 170 µM
